Sourced from the CheMixHub drug solubility set

For each of the molecules below, state its solubility (g/100 g solution).
test: xn = mol fraction of the nth substance listed, in the solute-free solvent; conditions: 283.15 K; x2 = 0.7
Give bare numbers.

# Molecule, Reported Value
measured = [
    ("S=c1[nH]ncs1 + CCO + O", 9.5),
]

State recorded solubility (g/100 g solution) for all listed molecules.
1. CC(N)C(=O)O (stereo not drawn) + O + CCCO
2. CC(N)C(=O)O (stereo not drawn) + O + CO

[1.29, 1.99]

----------
For each of the compounds below, state its solubility (g/100 g solution).
test: xn = mol fraction of the nth substance listed, in the solute-free solvent; conditions: 293.15 K; x2 = 0.3
One number for each entry.

# Compound, solubility (g/100 g solution)
records = [
    ("OCCN(CCO)c1nc(N2CCCCC2)c2nc(N(CCO)CCO)nc(N3CCCCC3)c2n1 + CC(C)O + O", 4.66),
    ("OCCN(CCO)c1nc(N2CCCCC2)c2nc(N(CCO)CCO)nc(N3CCCCC3)c2n1 + CO + O", 0.0465),
    ("S=c1[nH]ncs1 + CO + O", 3.39),
]

Output solubility (g/100 g solution) of Cc1ncc(C[n+]2csc(CCO)c2C)c(N)n1.O=[N+]([O-])[O-] + O + CC(C)O
0.06

----------
test: xn = mol fraction of the nth substance listed, in the solute-free solvent; conditions: 308.15 K; x2 = 0.6
Value Kind: solubility (g/100 g solution)
Numbers only.

Examples with their reported solubility (g/100 g solution) follow.
# Compound, solubility (g/100 g solution)
records = [
    ("S=c1[nH]ncs1 + CO + O", 17),
    ("S=c1[nH]ncs1 + CCO + O", 19.2),
    ("OCCN(CCO)c1nc(N2CCCCC2)c2nc(N(CCO)CCO)nc(N3CCCCC3)c2n1 + CC(C)O + O", 18),
]

State recorded solubility (g/100 g solution) for all listed compounds.
1. OCCN(CCO)c1nc(N2CCCCC2)c2nc(N(CCO)CCO)nc(N3CCCCC3)c2n1 + CCO + O
2. OCCN(CCO)c1nc(N2CCCCC2)c2nc(N(CCO)CCO)nc(N3CCCCC3)c2n1 + CO + O

1: 13.1; 2: 3.21

----------
For each of the compounds below, state its solubility (g/100 g solution).
assay: xn = mol fraction of the nth substance listed, in the solute-free solvent; details: 293.15 K; x2 = 0.7
Give bare numbers.

# Compound, Value Kind, Reported Value
records = [
    ("S=c1[nH]ncs1 + CC(C)=O + O", "solubility (g/100 g solution)", 27.7),
]

State recorded solubility (g/100 g solution) for all listed compounds.
1. CC(N)C(=O)O (stereo unspecified) + O + CCCO
2. Cc1ncc(C[n+]2csc(CCO)c2C)c(N)n1.O=[N+]([O-])[O-] + O + CC(C)O

1.56
1.12

----------
For each of the molecules below, state its solubility (g/100 g solution).
assay: xn = mol fraction of the nth substance listed, in the solute-free solvent; conditions: 308.15 K; x2 = 0.04165
Answers are plain numbers.

# Molecule, solubility (g/100 g solution)
measured = [
    ("Nc1cccc(S(=O)(=O)c2cccc(N)c2)c1 + CCO + O", 0.284),
    ("CC(C)OC(=O)C(C)NP(=O)(OCC1OC(n2ccc(=O)[nH]c2=O)C(C)(F)C1O)Oc1ccccc1 (stereo not drawn) + CCO + O", 2.08),
]

Output solubility (g/100 g solution) of Cc1[nH]c(=O)c(C#N)cc1-c1ccncc1 + CCO + O
0.00174

----------
test: xn = mol fraction of the nth substance listed, in the solute-free solvent; conditions: 283.15 K; x2 = 0.4
Value Kind: solubility (g/100 g solution)
Answers are plain numbers.

State recorded solubility (g/100 g solution) for all listed compounds.
1. Cc1ncc(C[n+]2csc(CCO)c2C)c(N)n1.O=[N+]([O-])[O-] + O + CO
2. CC(N)C(=O)O (stereo not drawn) + O + CC(C)=O
3. S=c1[nH]ncs1 + CCCO + O

1: 0.801; 2: 0.0557; 3: 7.46

----------
For each of the molecules below, state its solubility (g/100 g solution).
assay: xn = mol fraction of the nth substance listed, in the solute-free solvent; conditions: 313.15 K; x2 = 0.7
One number for each entry.

Examples with their reported solubility (g/100 g solution) follow.
# Molecule, solubility (g/100 g solution)
rows = [
    ("S=c1[nH]ncs1 + CO + O", 22.6),
    ("CC(N)C(=O)O (stereo not drawn) + O + CCCO", 2.27),
]

Output solubility (g/100 g solution) of CC(N)C(=O)O (stereo not drawn) + O + CC(C)O
1.55

----------
assay: xn = mol fraction of the nth substance listed, in the solute-free solvent; conditions: 293.15 K; x2 = 0.7
For each of the molecules below, state its solubility (g/100 g solution).
Give bare numbers.

# Molecule, solubility (g/100 g solution)
records = [
    ("CC(N)C(=O)O (stereo not drawn) + O + CO", 2.53),
    ("CC(N)C(=O)O (stereo not drawn) + O + CCO", 1.35),
]

Now let's try a different one.
Output solubility (g/100 g solution) of OCCN(CCO)c1nc(N2CCCCC2)c2nc(N(CCO)CCO)nc(N3CCCCC3)c2n1 + CC(C)O + O
8.37
